Origin of measurements: patent US20260356840A1

Entries and their pIC50
- target-under-test: human Werner helicase (Uniprot Q14191, amino acids 517-1235 with L1074F point mutation), WRN-BV08 (Homo sapiens, UniProt Q14191, L1074F)
- Construct: Uniprot Q14191, amino acids 517-1235 with L1074F point mutation; TEV cleavable 8xHis tag (C, cleaved yes)
- Sequence (Q14191 517-1235 L1074F): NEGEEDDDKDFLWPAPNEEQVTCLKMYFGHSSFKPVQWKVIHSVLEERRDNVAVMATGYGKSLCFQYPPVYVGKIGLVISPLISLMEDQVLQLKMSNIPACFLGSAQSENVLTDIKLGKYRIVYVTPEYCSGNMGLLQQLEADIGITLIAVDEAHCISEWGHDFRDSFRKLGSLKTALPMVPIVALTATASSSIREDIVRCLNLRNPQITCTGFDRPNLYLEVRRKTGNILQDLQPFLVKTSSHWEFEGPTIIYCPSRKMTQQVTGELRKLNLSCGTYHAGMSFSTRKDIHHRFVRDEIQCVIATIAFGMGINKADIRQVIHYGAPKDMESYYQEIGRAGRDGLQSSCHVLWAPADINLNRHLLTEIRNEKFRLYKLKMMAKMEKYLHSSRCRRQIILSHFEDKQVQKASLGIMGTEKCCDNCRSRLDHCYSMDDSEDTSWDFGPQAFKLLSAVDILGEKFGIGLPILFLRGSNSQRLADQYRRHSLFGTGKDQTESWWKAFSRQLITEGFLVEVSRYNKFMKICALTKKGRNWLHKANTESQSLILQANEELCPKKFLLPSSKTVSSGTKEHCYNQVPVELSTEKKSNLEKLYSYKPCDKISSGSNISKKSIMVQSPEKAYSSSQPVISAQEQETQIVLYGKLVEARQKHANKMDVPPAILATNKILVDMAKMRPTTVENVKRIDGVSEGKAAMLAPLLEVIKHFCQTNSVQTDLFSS
- method: WRN (BV08) ADP-Glo Assay
pIC50: −log10 of the molar value.
measure-name: pIC50

INSERT INTO results (smiles_notation, value) VALUES
  ('CCc1c(N2CCN(C(=O)c3noc(C)n3)CC2)c(=O)n2nc(-c3ccnc(OC)c3)nc2n1CC(=O)Nc1ccc(C(F)(F)F)cc1Cl', '7.30 to 8.30'),
  ('CCc1c(N2CCN(C(=O)c3cnn(C)c3)CC2)c(=O)n2nc(-c3cnn(CC(C)(C)O)c3)nc2n1CC(=O)Nc1ccc(C(F)(F)F)cc1Cl', '7.30 to 8.30'),
  ('CCc1c(N2CCN(C(=O)c3coc(C)n3)CC2)c(=O)n2nc(-c3ccnc(OC)c3)nc2n1CC(=O)Nc1ccc(C(F)(F)F)cc1Cl', '7.30 to 8.30'),
  ('CCc1c(N2CCN(C(=O)c3ccnc(C)c3O)CC2)c(=O)n2nc(C3=CCOCC3)nc2n1CC(=O)Nc1ccc(C(F)(F)F)cc1Cl', '7.30 to 8.30'),
  ('CCc1c(N2CCN(C(=O)c3cnn(C4CC4)c3)CC2)c(=O)n2nc(-c3ccnc(OC)c3)nc2n1CC(=O)Nc1ccc(C(F)(F)F)cc1Cl', '7.30 to 8.30'),
  ('CCc1c(N2CCN(C(=O)c3ncc(C)s3)CC2)c(=O)n2nc(-c3ccnc(OC)c3)nc2n1CC(=O)Nc1ccc(C(F)(F)F)cc1Cl', '7.00 to 7.30'),
  ('CCc1c(N2CCN(C(=O)c3sccc3O)CC2)c(=O)n2nc(C3=CCOCC3)nc2n1CC(=O)Nc1ccc(C(F)(F)F)cc1Cl', '7.30 to 8.30'),
  ('CCc1c(N2CCN(C(=O)c3nocc3O)CC2)c(=O)n2nc(-c3ccnc(OC)c3)nc2n1CC(=O)Nc1ccc(C(F)(F)F)cc1Cl', '7.30 to 8.30'),
  ('CCc1c(N2CCN(C(=O)c3nc(C)cs3)CC2)c(=O)n2nc(-c3ccnc(OC)c3)nc2n1CC(=O)Nc1ccc(C(F)(F)F)cc1Cl', '6.30 to 7.00'),
  ('CCc1c(N2CCN(C(=O)c3nsnc3O)CC2)c(=O)n2nc(C3=CCOCC3)nc2n1CC(=O)Nc1ccc(C(F)(F)F)cc1Cl', '7.30 to 8.30'),
  ('CCc1c(N2CCN(C(=O)c3c(C)nn(C)c3OC)CC2)c(=O)n2nc(-c3ccnc(OC)c3)nc2n1CC(=O)Nc1ccc(C(F)(F)F)cc1Cl', '7.30 to 8.30'),
  ('CCc1c(N2CCN(C(=O)c3ncnc(C)c3O)CC2)c(=O)n2nc(-c3ccn(C4CC4)n3)nc2n1CC(=O)Nc1ccc(C(F)(F)F)cc1Cl', '7.30 to 8.30');

----------
- target-under-test: human Werner helicase (Uniprot Q14191, amino acids 517-1235 with L1074F point mutation), WRN-BV08 (Homo sapiens, UniProt Q14191, L1074F)
- Construct: Uniprot Q14191, amino acids 517-1235 with L1074F point mutation; TEV cleavable 8xHis tag (C, cleaved yes)
- method: WRN (BV08) ADP-Glo Assay
Entries and their IC50
measure-name: IC50

INSERT INTO assay_data (smiles_notation, value) VALUES
  ('CCc1c(N2CCN(C(=O)c3ncnc(C)c3O)CC2)c(=O)n2nc(-c3cc(C)nc(OC)c3)nc2n1CC(=O)Nc1ccc(C(F)(F)F)cc1Cl', '5 to 50 nM'),
  ('CCc1c(N2CCN(C(C)=O)CC2)c(=O)n2nc(C3=CCOCC3)nc2n1CC(=O)Nc1ccc(C(F)(F)F)cc1Cl', '5 to 50 nM'),
  ('CCc1c(N2CCN(C(C)=O)CC2)c(=O)n2nc(-c3ccnc(OC)c3)nc2n1CC(=O)Nc1ccc(C(F)(F)F)cc1Cl', '5 to 50 nM'),
  ('CCc1c(N2CCN(C(=O)c3ccnn3C)CC2)c(=O)n2nc(-c3ccnc(OC)c3)nc2n1CC(=O)Nc1ccc(C(F)(F)F)cc1Cl', '5 to 50 nM'),
  ('CCc1c(N2CCN(C(=O)C(C)(C)O)CC2)c(=O)n2nc(C3=CCOCC3)nc2n1CC(=O)Nc1ccc(C(F)(F)F)cc1Cl', '50 to 100 nM'),
  ('CCc1c(N2CCN(C(=O)c3ncnc(C)c3O)CC2)c(=O)n2nc(-c3cnc(OC)c(C)c3)nc2n1CC(=O)Nc1ccc(C(F)(F)F)cc1Cl', '5 to 50 nM'),
  ('CCc1c(N2CCN(C(=O)c3ncc4c(c3O)CCO4)CC2)c(=O)n2nc(-c3ccnc(OC)c3)nc2n1CC(=O)Nc1ccc(C(F)(F)F)cc1Cl', '< 5 nM'),
  ('CCc1c(N2CCN(C(=O)c3cccc4cn[nH]c34)CC2)c(=O)n2nc(C3=CCOCC3)nc2n1CC(=O)Nc1ccc(C(F)(F)F)cc1Cl', '< 5 nM'),
  ('CCc1c(N2CCN(C(=O)c3ncnc(C)c3O)CC2)c(=O)n2nc(-c3cnn(C4CC4)c3)nc2n1CC(=O)Nc1ccc(C(F)(F)F)cc1Cl', '5 to 50 nM'),
  ('CCc1c(N2CCN(C(=O)c3cnn(C)c3O)CC2)c(=O)n2nc(C3=CCOCC3)nc2n1CC(=O)Nc1ccc(C(F)(F)F)cc1Cl', '5 to 50 nM'),
  ('CCc1c(N2CCN(C(=O)c3cccc(C)c3O)CC2)c(=O)n2nc(C3=CCOCC3)nc2n1CC(=O)Nc1ccc(C(F)(F)F)cc1Cl', '5 to 50 nM'),
  ('CCc1c(N2CCN(C(=O)c3cnn(C)c3)CC2)c(=O)n2nc(-c3cc(OC)ncn3)nc2n1CC(=O)Nc1ccc(C(F)(F)F)cc1Cl', '5 to 50 nM'),
  ('CCc1c(N2CCN(C(=O)c3cn(C)[nH]c3=O)CC2)c(=O)n2nc(C3=CCOCC3)nc2n1CC(=O)Nc1ccc(C(F)(F)F)cc1Cl', '< 5 nM'),
  ('CCc1c(N2CCN(C(=O)c3ncnn3C)CC2)c(=O)n2nc(-c3ccnc(OC)c3)nc2n1CC(=O)Nc1ccc(C(F)(F)F)cc1Cl', '5 to 50 nM'),
  ('CCc1c(N2CCN(C(=O)c3c(F)cccc3F)CC2)c(=O)n2nc(C3=CCOCC3)nc2n1CC(=O)Nc1ccc(C(F)(F)F)cc1Cl', '5 to 50 nM'),
  ('CCc1c(N2CCN(C(=O)c3nn(C)cc3O)CC2)c(=O)n2nc(-c3ccnc(OC)c3)nc2n1CC(=O)Nc1ccc(C(F)(F)F)cc1Cl', '5 to 50 nM'),
  ('CCc1c(N2CCN(C(=O)c3c(C)cnc(C)c3O)CC2)c(=O)n2nc(C3=CCOCC3)nc2n1CC(=O)Nc1ccc(C(F)(F)F)cc1Cl', '5 to 50 nM'),
  ('CCc1c(N2CCN(C(=O)c3ccn(C)n3)CC2)c(=O)n2nc(C3=CCOCC3)nc2n1CC(=O)Nc1ccc(C(F)(F)F)cc1Cl', '5 to 50 nM'),
  ('CCc1c(N2CCN(C(=O)c3nnc(C)s3)CC2)c(=O)n2nc(C3=CCOCC3)nc2n1CC(=O)Nc1ccc(C(F)(F)F)cc1Cl', '5 to 50 nM'),
  ('CCc1c(N2CCN(C(=O)c3c(O)noc3C)CC2)c(=O)n2nc(C3=CCOCC3)nc2n1CC(=O)Nc1ccc(C(F)(F)F)cc1Cl', '< 5 nM'),
  ('CCc1c(N2CCN(C(=O)c3cnc(C)s3)CC2)c(=O)n2nc(-c3ccnc(OC)c3)nc2n1CC(=O)Nc1ccc(C(F)(F)F)cc1Cl', '5 to 50 nM'),
  ('CCc1c(N2CCN(C(=O)c3ncc4c(c3O)OCC4)CC2)c(=O)n2nc(C3=CCOCC3)nc2n1CC(=O)Nc1ccc(C(F)(F)F)cc1Cl', '5 to 50 nM'),
  ('CCc1c(N2CCN(C(=O)c3nnn(C)n3)CC2)c(=O)n2nc(-c3ccnc(OC)c3)nc2n1CC(=O)Nc1ccc(C(F)(F)F)cc1Cl', '5 to 50 nM'),
  ('CCc1c(N2CCN(C(=O)c3ccnc4cccnc34)CC2)c(=O)n2nc(C3=CCOCC3)nc2n1CC(=O)Nc1ccc(C(F)(F)F)cc1Cl', '5 to 50 nM');
